These data points were gathered from patent US20170253656A1.

# testTarget: T1, hu-CD74 antigen (R&D SYSTEMS catalog #3590-CD-050) (human, UniProt P04233-2 73-232, limits assumed)
# T1 construct: Bought antigen; also called rhCD74; human CD74
# T1 sequence (looked up): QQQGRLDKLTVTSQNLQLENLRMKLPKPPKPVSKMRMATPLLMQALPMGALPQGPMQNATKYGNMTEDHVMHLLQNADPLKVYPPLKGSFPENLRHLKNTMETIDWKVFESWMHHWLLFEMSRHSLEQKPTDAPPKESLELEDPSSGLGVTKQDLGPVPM
# experiment: SPR (Biacore T200), IgG captured on anti-human Fc, rhCD74 analyte
propertyMeasured: Kd (nM)

HC 1251_B08 (g)/LC 1337_A09 (wt) (antibody, human IgG1, kappa, V domains shown, IgG format) VH: QVQLVESGGGVVQPGRSLRLSCAASGFNFSDYGMHWVRQAPGKGLEWVAVIWYDGSISYYADSVKGRFTISRDNSKNTLYLQMNSLRAEDTAVYYCARGGTVEHGAVYGTDVWGQGTTVTVSS VL: DIQMTQSPSSLSASVGDRVTITCRASQGIGSWLAWYQQKPEKAPKSLIYAADRLQSGVPSRFSGSGSGTDFTLTISSLQPEDFATYYCQQYHTYPLTFGGGTKVEIKR; 0.64
HC 1251_A06 (g)/LC 1337_A09 (g) (antibody, human IgG1, kappa, V domains shown, IgG format) VH: QVQLVESGGGVVQPGRSLRLSCAASGFDFSSYGMHWVRQAPGKGLEWVAVIWDDGSDRYYADSVKGRFTISRDNSKNTLYLQMNSLRAEDTAVYYCARGGTRVLGAIHGTDVWGQGTTVTVSS VL: DIQMTQSPSSVSASVGDRVTITCRASQGIGSWLAWYQQKPGKAPKLLIYAADRLQSGVPSRFSGSGSGTDFTLTISSLQPEDFATYYCQQYHTYPLTFGGGTKVEIKR; 0.131
